- assayed system: T1, GST-MDMX containing full-length human MDMX (human, UniProt O15151 1-490)
- T1 construct: mature; Expressed in E. coli and purified on glutathione-agarose; not shown: GST tag
- T1 sequence (looked up): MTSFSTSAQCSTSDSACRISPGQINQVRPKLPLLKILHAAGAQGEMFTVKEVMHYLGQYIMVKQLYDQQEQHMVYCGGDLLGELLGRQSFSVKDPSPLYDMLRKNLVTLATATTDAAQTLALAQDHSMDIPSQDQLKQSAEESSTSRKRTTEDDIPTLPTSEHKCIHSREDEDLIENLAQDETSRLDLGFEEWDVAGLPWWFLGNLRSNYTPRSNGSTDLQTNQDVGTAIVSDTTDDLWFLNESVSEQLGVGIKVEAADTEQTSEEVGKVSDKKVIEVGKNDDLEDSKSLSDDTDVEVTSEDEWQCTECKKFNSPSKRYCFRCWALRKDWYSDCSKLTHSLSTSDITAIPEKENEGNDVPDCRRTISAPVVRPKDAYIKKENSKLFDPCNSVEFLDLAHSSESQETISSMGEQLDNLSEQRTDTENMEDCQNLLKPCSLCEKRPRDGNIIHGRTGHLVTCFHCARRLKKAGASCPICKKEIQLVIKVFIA
- experimental details: competition ELISA: peptide + GST-MDMX on plated His6-p53
Bridges are numbered along the chain shown (N, C = ends). [ ]: non-standard residue; d: D form. code β = tetrazole-bearing lysine Lys(tetrazole), tetrazole half of pyrazoline cross-linker; L3 = not defined here
In this section, each of the binders is paired with its reported IC50.
Returns: string containing the numeric result and its unit.

Use the examples below as a reference point.
What does the record list as IC50 for Ac-LTFXHYWXQLTS-NH2 (bridge 4-8 via L3; not fully specified (residues 4, 8); printed as LTFαHYWβQLTS, Stapled peptide) [sPDI-4] ?
390 nM

Suppose we examine the binder Ac-TSFXRYWXRLSP-NH2 (bridge 4-8 via L3; not fully specified (residues 4, 8); printed as TSFαRYWβRLSP; also: pyrazoline cross-linker L3 between α and β, Stapled peptide) [sPMI-4] ; what IC50 value has been reported?
1840 nM

Now consider a different binder.
Could you tell me which IC50 is on file for Ac-TSFXQYW[code β]RLRP-NH2 (bridge 4-8; not fully specified (residue 4, bridges); printed as TSFαQYWβRLRP; also: pyrazoline cross-linker L3 between α and β, Stapled peptide) [sPMI-5] ?
298 nM
